- System: cynomolgus CD200R1
- PROTOCOL: SPR binding kinetics, cynomolgus CD200R1
- MEASUREMENT_PARAMETERS: cynomolgus CD200R1-his captured on anti-His CM5 chip, 1:1 Langmuir fit

>  <MOLECULE>
P001009v4: P001009 variant, LC N31 substituted with K; VH SEQ ID NO: 79 (antibody, V domains shown) VH: EVQLLESGGGLVQPGGSLRLSCAASGFTFSSYDMSWVRQAPGKGLEWVSWISHGGGSIYYADSVKGRFTISRDNSKNTLYLQMNSLRAEDTAVYYCARDAPAYSAPLFDYWGQGTLVTVSS VL: QSVLTQPPSASGTPGQRVTISCSGSSSNIGNKAVNWYQQLPGTAPKLLIYYDSNRPSGVPDRFSGSKSGTSASLAISGLRSEDEADYYCAAWDDSLSGYVFGGGTKLTVL

>  <UNIT_TAG>
M⁻¹ s⁻¹

>  <Ka>
3.71e+06

$$$$
